Read-out: TIMP metallopeptidase inhibitor 1 (TIMP1), TIMP1 (gene 7076)
Assay: BSK_hDFCGF_TIMP1: BioMAP Diversity Plus: hDFCGF Assay for TIMP metallopeptidase inhibitor 1 (TIMP1) Biomarker Activity (AID 2283062)
Settings: primary human foreskin fibroblasts; actives raise or lower the signal
The source made the active and inactive calls. Rule for the calls: active = hit-call score of the fitted dose curve at least 0.9, where 1 is the maximum; inactive = score below 0.9.
metric_name: AC50

compound: Oc1ccc(Cc2ccccc2O)cc1
AC50: inactive
//
compound: CCCCCCCCCCCCCCCCCC[N+](C)(C)Cc1ccccc1
AC50: 0.553 µM (active)
//
compound: CCCCC(CC)C(=O)OCCOCCOCCOCCOC(=O)C(CC)CCCC (configuration not stated)
AC50: inactive
//
compound: OCCN1CN(CCO)CN(CCO)C1
AC50: inactive
//
compound: O=C(CC(=O)C(F)(F)C(F)(F)C(F)(F)F)c1cccs1
AC50: inactive
//
compound: Cc1ccc(N=Nc2c(O)ccc3ccccc23)c(C)c1
AC50: inactive
//
compound: CC1=NN(c2ccccc2)C(=O)C1
AC50: inactive
//
compound: C=CC(C)(CCC=C(C)C)OC(C)=O (configuration not stated)
AC50: inactive

Please look at the items below and tell me AC50 for each one, in order.
1. Cc1cccc2c1ccc1ccccc12
2. COc1cc(OC)nc(NC(=O)NS(=O)(=O)Nc2ccccc2C(=O)N(C)C)n1
3. CCCCCCCCCCCCOS(=O)(=O)O

["inactive", "inactive", "32 µM (active)"]

Measured AC50 of CCCCC(CC)C(=O)O (configuration not stated) : inactive

###

Assay: ATG_EGR_CIS: Attagene CIS-FACTORIAL HepG2 Assay for human Early Growth Response 1 (EGR1) (AID 2282938)
Settings: HepG2 Attagene CIS-FACTORIAL EGR reporter mRNA; actives raise or lower the signal
Active and inactive are the calls of the source. Rule for the calls: active = hit-call score of the fitted dose curve at least 0.9, where 1 is the maximum; inactive = score below 0.9.
The categories you may choose from are active, inactive

smiles_entry: Oc1c(Cl)cc(Cl)cc1Sc1cc(Cl)cc(Cl)c1O
category: inactive

smiles_entry: CN(CCO)S(=O)(=O)C(F)(F)C(F)(F)C(F)(F)C(F)(F)C(F)(F)C(F)(F)C(F)(F)C(F)(F)F
category: inactive

smiles_entry: Nc1cc(Cl)c(-c2cc(Cl)c(N)cc2Cl)cc1Cl
category: inactive

smiles_entry: O=C(OC(=O)C(F)(F)C(F)(F)F)C(F)(F)C(F)(F)F
category: inactive

smiles_entry: Cc1ccc(S(=O)(=O)O)cc1
category: inactive

smiles_entry: c1cc2cccc3c4cccc5cccc(c(c1)c23)c54
category: inactive

smiles_entry: O=C(F)C(F)(F)C(F)(F)C(F)(F)C(=O)F
category: inactive

Switching to the query record.
// param item: "O=S(=O)(c1ccc(OCc2ccccc2)cc1)c1ccccc1O" ; yields the recorded call active

###

Molecular target: Hepatocyte nuclear factor 6 (Homo sapiens) (UniProt Q9UBC0)
Sequence (Q9UBC0 whole entry, looked up): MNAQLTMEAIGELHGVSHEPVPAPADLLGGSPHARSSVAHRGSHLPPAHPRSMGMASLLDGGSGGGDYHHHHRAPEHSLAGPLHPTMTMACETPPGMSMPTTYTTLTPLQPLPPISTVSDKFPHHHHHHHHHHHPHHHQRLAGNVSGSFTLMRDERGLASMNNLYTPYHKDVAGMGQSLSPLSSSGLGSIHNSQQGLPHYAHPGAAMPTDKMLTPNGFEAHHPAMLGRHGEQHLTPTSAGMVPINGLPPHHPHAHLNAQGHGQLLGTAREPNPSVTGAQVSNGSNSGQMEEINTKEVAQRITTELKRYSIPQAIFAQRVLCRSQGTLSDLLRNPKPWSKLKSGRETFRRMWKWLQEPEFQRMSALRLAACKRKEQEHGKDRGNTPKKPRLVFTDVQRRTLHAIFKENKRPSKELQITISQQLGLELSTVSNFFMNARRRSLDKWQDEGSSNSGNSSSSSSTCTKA
Assay: ATG_HNF6_CIS: Attagene CIS-FACTORIAL HepG2 Assay for human Hepatocyte Nuclear Factor 6 (HNF6) (AID 2282952)
Settings: HepG2 Attagene cis-factorial HNF6 reporter transcription; actives raise or lower the signal
Active and inactive are the calls of the source. The calls were made as follows: active = hit-call score of the fitted dose curve at least 0.9, where 1 is the maximum; inactive = score below 0.9.
Result category, one only: 1.0 (active), 0.0 (inactive)

Solved cases below.
compound: CC(C)(C)C1CCCCC1O (configuration not stated)
system: Hepatocyte nuclear factor 6 (Homo sapiens) (UniProt Q9UBC0)
category: 0.0
--
compound: O=C(O)CN(CCCN(CC(=O)O)CC(=O)O)CC(=O)O
system: Hepatocyte nuclear factor 6 (Homo sapiens) (UniProt Q9UBC0)
category: 0.0
--
compound: Clc1ccc(Nc2nnc(Cc3ccncc3)c3ccccc23)cc1
system: Hepatocyte nuclear factor 6 (Homo sapiens) (UniProt Q9UBC0)
category: 1.0
--
compound: CCCCCCCCC1CCC(=O)O1 (configuration not stated)
system: Hepatocyte nuclear factor 6 (Homo sapiens) (UniProt Q9UBC0)
category: 0.0
--
compound: COC(=O)CC(C(C)=O)C(=O)OC (configuration not stated)
system: Hepatocyte nuclear factor 6 (Homo sapiens) (UniProt Q9UBC0)
category: 0.0
--
compound: FC(F)(F)C(F)(F)C(F)(F)C(F)(F)I
system: Hepatocyte nuclear factor 6 (Homo sapiens) (UniProt Q9UBC0)
category: 0.0
--
compound: C[N+](C)(CCCNS(=O)(=O)CCC(F)(F)C(F)(F)C(F)(F)C(F)(F)C(F)(F)C(F)(F)F)CC(=O)[O-]
system: Hepatocyte nuclear factor 6 (Homo sapiens) (UniProt Q9UBC0)
category: 0.0
--
compound: O=C(CC(=O)C(F)(F)C(F)(F)C(F)(F)F)c1cccs1
system: Hepatocyte nuclear factor 6 (Homo sapiens) (UniProt Q9UBC0)
category: 0.0

Returns: the outcome recorded for "FC(F)(F)C1(F)C(F)(F)C(F)(F)C(F)(F)C1(F)F" in this assay. 0.0

Called result for "O=C1Cc2ccccc2N1c1c(Cl)cccc1Cl" 0.0

Just curious, what result did "c1cc[nH]c1" get here? 0.0

Hi, sorry to bother you, what did the test record for "O=CC(F)(F)C(F)(F)C(F)(F)C(F)F" ? 0.0

Write down the call the test reported for this compound. Item: "CC(C)CCOCCC(C)C" 0.0

Could you check what this test reported for CC(O)COc1ccccc1 (configuration not stated) ? 0.0

Record request — test call for "FC(F)(F)C(F)(F)C(F)(F)Br" 0.0

// return assay outcome for "NCc1cccc(CN)c1" 0.0

Returns: the outcome recorded for "CCCC=O" in this assay. 0.0

Just curious, what result did "COC1=CC(=O)C[C@@H](C)[C@]12Oc1c(Cl)c(OC)cc(OC)c1C2=O" get here? 0.0

For COCC1CCC(CO)CC1 (configuration not stated) , which call appears in the assay record? 0.0

Could you kindly confirm the outcome this assay logged for "C=Cc1ccc(O)c(OC)c1" ? 0.0

Returns: the outcome recorded for "Cc1ccc(N=Nc2c(O)ccc3ccccc23)c(C)c1" in this assay. 0.0

Please indicate how the test categorized CCCCCCCCCC=CCC1CC(=O)OC1=O (configuration not stated) . 0.0

Please indicate how the test categorized CC1CCC(CO)CC1 (configuration not stated) . 0.0

What classification did "COc1cccc(O)c1" end up with in this test? 0.0

I would be grateful if you could indicate the recorded call for "O=C(NO)c1ccccc1" . 0.0

I'd appreciate the recorded outcome for "Cc1cc(C(C)(C)C)c(O)c(C(C)(C)C)c1" from this test. 0.0

Recorded test call requested for "O=P(O)(O)CCC(F)(F)C(F)(F)C(F)(F)C(F)(F)C(F)(F)C(F)(F)C(F)(F)C(F)(F)F" 0.0
